Data provenance: patent US20260242478A1

- System tested: T1, Anti-PSMA Fab (SEQ ID NOs: 19, 20)
- T1 construct: In the phage ELISA the Fab was biotinylated and captured on neutravidin coated plates; also called 006 PSMA Fab
- Method description: phage ELISA; biotinylated PSMA Fab on neutravidin plate, clonal phage supernatant, anti-M13 HRP detection;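 also: wells preincubated with PSMA antigen in blocking buffer or with blocking buffer only before clonal phage were added for a short incubation, then bound phage detected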
Where no end group is shown, it is not given here.
Outcome measure: Phage binding ELISA, Anti-PSMA Fab signal
# output: bare number, no unit

Binder	Observed measurement
HEMWCRPAWMCDGF (cysteine pairing not given here; also: displayed as fusion to phage pIII, Peptide-180 library clone) [Phage-2000]	1.85
QDMWCIPPWMCWAQ (cysteine pairing not given here; also: fused to phage pIII, pIII sequence and linker not given here, Peptide-180 library clone) [Phage-2007]	1.85

Challenge: Reported Phage binding ELISA, Anti-PSMA Fab signal, binder IPKWCTPAWMCESM (cysteine pairing not given here; also: displayed as fusion to phage pIII, Peptide-180 library clone) [Phage-1999] : ____
Response given: 1.86
